- System: KRAS-mutant PDC multicell tumor spheroid viability
- Measurement Notes: Anticancer human tumor 521955-158-R2-J5-PDC patient-derived pancreatic carcinoma cell line growth inhibition [KRAS2]
- Condition Set: second compound 10 µM; first compound 0.0316 µM; stronger effect = lower value
Classify by viability, T/C. Ranges: bucket A = under 0.3%, bucket B = from 0.3% up to 20%, bucket C = 20% and over

Hello team, could you let me know which band the following compound falls into: COc1cc(Nc2ncc3c(n2)-c2ccc(Cl)cc2C(c2c(F)cccc2OC)=NC3)ccc1C(=O)O + COc1cc2nc(C)nc(NC(C)c3cc(N)cc(C(F)(F)F)c3)c2cc1OC1CCOC1
bucket B

Hello team, could you let me know which band the following compound falls into: CC(=O)Nc1cccc(-n2c(=O)n(C3CC3)c(=O)c3c(Nc4ccc(I)cc4F)n(C)c(=O)c(C)c32)c1 + CC1OCC2(CCN(c3cnc(Sc4ccnc(N)c4Cl)c(N)n3)CC2)C1N
bucket B

Hello team, could you let me know which band the following compound falls into: COc1cc(Nc2ncc3c(n2)-c2ccc(Cl)cc2C(c2c(F)cccc2OC)=NC3)ccc1C(=O)O + CNCc1ccccc1-c1csc(C(C)Nc2nc(C)nc3cc(OC)c(OC)cc23)c1
bucket A

Hello team, could you let me know which band the following compound falls into: CCNC(=O)CC1N=C(c2ccc(Cl)cc2)c2cc(OC)ccc2-n2c(C)nnc21 (stereo unspecified) + CC1OCC2(CCN(c3cnc(Sc4ccnc(N)c4Cl)c(N)n3)CC2)C1N
bucket C

Hello team, could you let me know which band the following compound falls into: CC1(C)CCC(CN2CCN(c3ccc(C(=O)NS(=O)(=O)c4ccc(NCC5CCOCC5)c([N+](=O)[O-])c4)c(Oc4cnc5[nH]ccc5c4)c3)CC2)=C(c2ccc(Cl)cc2)C1 + COc1cc2nc(C)nc(NC(C)c3cc(N)cc(C(F)(F)F)c3)c2cc1OC1CCOC1
bucket C

Hello team, could you let me know which band the following compound falls into: CC(C)NCC(C(=O)N1CCN(c2ncnc3c2C(C)CC3O)CC1)c1ccc(Cl)cc1 (stereo unspecified) + CNCc1ccccc1-c1csc(C(C)Nc2nc(C)nc3cc(OC)c(OC)cc23)c1
bucket B

Hello team, could you let me know which band the following compound falls into: CCNC(=O)CC1N=C(c2ccc(Cl)cc2)c2cc(OC)ccc2-n2c(C)nnc21 (stereo unspecified) + CNCc1ccccc1-c1csc(C(C)Nc2nc(C)nc3cc(OC)c(OC)cc23)c1
bucket A

Hello team, could you let me know which band the following compound falls into: CN(C)C/C=C/C(=O)Nc1cc2c(Nc3ccc(F)c(Cl)c3)ncnc2cc1O[C@H]1CCOC1 + COc1cc2nc(C)nc(NC(C)c3cc(N)cc(C(F)(F)F)c3)c2cc1OC1CCOC1
bucket C

Hello team, could you let me know which band the following compound falls into: CC1OCC2(CCN(c3cnc(Sc4ccnc(N)c4Cl)c(N)n3)CC2)C1N (stereo unspecified) + CNCc1ccccc1-c1csc(C(C)Nc2nc(C)nc3cc(OC)c(OC)cc23)c1
bucket A

Hello team, could you let me know which band the following compound falls into: CC1COCCN1c1cc(-c2ccnn2C)c2ccnc(-c3ccn[nH]3)c2n1 (stereo unspecified) + C=CC(=O)N1CCN(c2nc(=O)n(-c3c(C)ccnc3C(C)C)c3nc(-c4c(O)cccc4F)c(F)cc23)C(C)C1
bucket B

Hello team, could you let me know which band the following compound falls into: COc1cc2nccc(Oc3ccc(NC(=O)C4(C(=O)Nc5ccc(F)cc5)CC4)cc3)c2cc1OC + CNCc1ccccc1-c1csc(C(C)Nc2nc(C)nc3cc(OC)c(OC)cc23)c1
bucket A

###

- Test system: KRAS-mutant PDC multicell tumor spheroid viability
- Measurement Notes: Anticancer human tumor 521955-158-R2-J5-PDC cell line growth inhibition [KRAS2];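 further: viability read after seven days of drug exposure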
- Condition Set: second compound 1 µM; first compound 0.0316 µM; stronger effect = lower value
The label MET is reserved for viability, T/C strictly under 40%; NOT MET covers values equal to or above it.

Would you kindly verify if viability, T/C of CC(=O)OC12COC1CC(O)C1(C)C(=O)C(O)C3=C(C)C(OC(=O)C(O)C(NC(=O)OC(C)(C)C)c4ccccc4)CC(O)(C(OC(=O)c4ccccc4)C21)C3(C)C (stereo not given) + CC1OCC2(CCN(c3cnc(Sc4ccnc(N)c4Cl)c(N)n3)CC2)C1N is strictly less than 40%?
MET

Would you kindly verify if viability, T/C of CC(C)NCC(C(=O)N1CCN(c2ncnc3c2C(C)CC3O)CC1)c1ccc(Cl)cc1 (stereo not given) + CNCc1ccccc1-c1csc(C(C)Nc2nc(C)nc3cc(OC)c(OC)cc23)c1 is strictly less than 40%?
NOT MET

Would you kindly verify if viability, T/C of COc1cc2nccc(Oc3ccc(NC(=O)C4(C(=O)Nc5ccc(F)cc5)CC4)cc3)c2cc1OC + CC1OCC2(CCN(c3cnc(Sc4ccnc(N)c4Cl)c(N)n3)CC2)C1N is strictly less than 40%?
NOT MET

Would you kindly verify if viability, T/C of Cn1ncnc1[C@H]1c2n[nH]c(=O)c3cc(F)cc(c23)N[C@@H]1c1ccc(F)cc1 + COc1cc2nc(C)nc(NC(C)c3cc(N)cc(C(F)(F)F)c3)c2cc1OC1CCOC1 is strictly less than 40%?
NOT MET

###

- Tested on: KRAS-mutant PDC multicell tumor spheroid viability
- Measurement Notes: Anticancer human tumor 521955-158-R2-J5-PDC cell line growth inhibition [KRAS2];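 further: viability read after seven days of drug exposure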
- Condition Set: curve of first compound; second compound 0.1 µM
pIC50: −log10 of the molar value.
Hi, to clarify the labels: Fulfilled covers pIC50 from 6 upward, Not fulfilled covers anything below 6.

Evaluate O=C(c1cc(Cc2n[nH]c(=O)c3ccccc23)ccc1F)N1CCN(C(=O)C2CC2)CC1 + CNCc1ccccc1-c1csc(C(C)Nc2nc(C)nc3cc(OC)c(OC)cc23)c1 : pIC50 at minimum 6?
Not fulfilled

Evaluate O=C(c1cc(Cc2n[nH]c(=O)c3ccccc23)ccc1F)N1CCN(C(=O)C2CC2)CC1 + C=CC(=O)N1CCN(c2nc(OCC3CCCN3C)nc3c2CCN(c2cccc4cccc(C)c24)C3)CC1CC#N : pIC50 at minimum 6?
Not fulfilled

Evaluate CC1(C)CCC(CN2CCN(c3ccc(C(=O)NS(=O)(=O)c4ccc(NCC5CCOCC5)c([N+](=O)[O-])c4)c(Oc4cnc5[nH]ccc5c4)c3)CC2)=C(c2ccc(Cl)cc2)C1 + C=CC(=O)N1CCN(c2nc(OCC3CCCN3C)nc3c2CCN(c2cccc4cccc(C)c24)C3)CC1CC#N : pIC50 at minimum 6?
Not fulfilled

Evaluate CC(=O)OC12COC1CC(O)C1(C)C(=O)C(O)C3=C(C)C(OC(=O)C(O)C(NC(=O)OC(C)(C)C)c4ccccc4)CC(O)(C(OC(=O)c4ccccc4)C21)C3(C)C (stereo not given) + C=CC(=O)N1CCN(c2nc(=O)n(-c3c(C)ccnc3C(C)C)c3nc(-c4c(O)cccc4F)c(F)cc23)C(C)C1 : pIC50 at minimum 6?
Fulfilled

Evaluate CC(=O)OC12COC1CC(O)C1(C)C(=O)C(O)C3=C(C)C(OC(=O)C(O)C(NC(=O)OC(C)(C)C)c4ccccc4)CC(O)(C(OC(=O)c4ccccc4)C21)C3(C)C (stereo not given) + CC1OCC2(CCN(c3cnc(Sc4ccnc(N)c4Cl)c(N)n3)CC2)C1N : pIC50 at minimum 6?
Fulfilled

Evaluate O=C(c1cc(Cc2n[nH]c(=O)c3ccccc23)ccc1F)N1CCN(C(=O)C2CC2)CC1 + COc1cc2nc(C)nc(NC(C)c3cc(N)cc(C(F)(F)F)c3)c2cc1OC1CCOC1 : pIC50 at minimum 6?
Not fulfilled

Evaluate Cn1nccc1Nc1nccc(-c2cc3c(s2)C(C)(C)N(CCN2CCOCC2)C3=O)n1 + COc1cc2nc(C)nc(NC(C)c3cc(N)cc(C(F)(F)F)c3)c2cc1OC1CCOC1 : pIC50 at minimum 6?
Fulfilled

Evaluate CC1COCCN1c1cc(-c2ccnn2C)c2ccnc(-c3ccn[nH]3)c2n1 (stereo not given) + COc1cc2nc(C)nc(NC(C)c3cc(N)cc(C(F)(F)F)c3)c2cc1OC1CCOC1 : pIC50 at minimum 6?
Fulfilled

Evaluate Cn1nccc1Nc1nccc(-c2cc3c(s2)C(C)(C)N(CCN2CCOCC2)C3=O)n1 + CC1OCC2(CCN(c3cnc(Sc4ccnc(N)c4Cl)c(N)n3)CC2)C1N : pIC50 at minimum 6?
Fulfilled

Evaluate CCNC(=O)CC1N=C(c2ccc(Cl)cc2)c2cc(OC)ccc2-n2c(C)nnc21 (stereo not given) + CNCc1ccccc1-c1csc(C(C)Nc2nc(C)nc3cc(OC)c(OC)cc23)c1 : pIC50 at minimum 6?
Fulfilled

Evaluate CC1(C)CCC(CN2CCN(c3ccc(C(=O)NS(=O)(=O)c4ccc(NCC5CCOCC5)c([N+](=O)[O-])c4)c(Oc4cnc5[nH]ccc5c4)c3)CC2)=C(c2ccc(Cl)cc2)C1 + CNCc1ccccc1-c1csc(C(C)Nc2nc(C)nc3cc(OC)c(OC)cc23)c1 : pIC50 at minimum 6?
Not fulfilled

Evaluate CC(=O)Nc1cccc(-n2c(=O)n(C3CC3)c(=O)c3c(Nc4ccc(I)cc4F)n(C)c(=O)c(C)c32)c1 + C=CC(=O)N1CCN(c2nc(=O)n(-c3c(C)ccnc3C(C)C)c3nc(-c4c(O)cccc4F)c(F)cc23)C(C)C1 : pIC50 at minimum 6?
Fulfilled

Evaluate COc1cc(Nc2ncc3c(n2)-c2ccc(Cl)cc2C(c2c(F)cccc2OC)=NC3)ccc1C(=O)O + CC1OCC2(CCN(c3cnc(Sc4ccnc(N)c4Cl)c(N)n3)CC2)C1N : pIC50 at minimum 6?
Fulfilled

Evaluate COc1cc2nccc(Oc3ccc(NC(=O)C4(C(=O)Nc5ccc(F)cc5)CC4)cc3)c2cc1OC + CNCc1ccccc1-c1csc(C(C)Nc2nc(C)nc3cc(OC)c(OC)cc23)c1 : pIC50 at minimum 6?
Not fulfilled

Evaluate CC1COCCN1c1cc(-c2ccnn2C)c2ccnc(-c3ccn[nH]3)c2n1 (stereo not given) + C=CC(=O)N1CCN(c2nc(=O)n(-c3c(C)ccnc3C(C)C)c3nc(-c4c(O)cccc4F)c(F)cc23)C(C)C1 : pIC50 at minimum 6?
Fulfilled

Evaluate COc1cc2nccc(Oc3ccc(NC(=O)C4(C(=O)Nc5ccc(F)cc5)CC4)cc3)c2cc1OC + CC1OCC2(CCN(c3cnc(Sc4ccnc(N)c4Cl)c(N)n3)CC2)C1N : pIC50 at minimum 6?
Not fulfilled

Evaluate O=C(c1cc(Cc2n[nH]c(=O)c3ccccc23)ccc1F)N1CCN(C(=O)C2CC2)CC1 + CC1OCC2(CCN(c3cnc(Sc4ccnc(N)c4Cl)c(N)n3)CC2)C1N : pIC50 at minimum 6?
Not fulfilled
